Test system: T-47D breast
Experiment: NCI-60 one-dose screen, 48 h
Conditions: 10 µM unless noted
Compounds without any hit were thinned out: in the full panel of roughly 83,000, 20% have a hit. The source made the active and inactive calls. Rule for the calls: active = growth percent below 10; inactive = the rest.
Outcomes: active, inactive

>>> class_assignment("CCOC(=O)C/C(=N\\Nc1cc(=O)[nH]c2ccc(Br)cc12)C(=O)OCC")
"inactive"
>>> class_assignment("Nc1n[nH]c2ccc([C@H]3[C@@H]4C5CCC(C5)[C@@H]4c4c(ccc5[nH]ncc45)N3S(=O)(=O)C3CC3)cc12 (stereo partly specified)")
"inactive"
>>> class_assignment("CCOC(=O)c1cc2c(n1C)-c1nc(NC(C)=O)sc1CCC2")
"inactive"
>>> class_assignment("[O-]/[N+](=C\\c1ccc(-n2cc(Cc3ccccc3Cc3cn(-c4ccc(/C=[N+](/[O-])c5ccccc5)cc4)nn3)nn2)cc1)c1ccccc1")
"inactive"
>>> class_assignment("C=CCn1c(SCC(=O)Nc2ccc(C(=O)/C=C/c3ccc(Cl)cc3)cc2)nnc1-c1ccc(Br)cc1")
"inactive"
>>> class_assignment("Cc1ccc(-c2nc(N3CCCNCC3)c3oc(-c4ccc(C)cc4)nc3n2)cc1")
"active"
>>> class_assignment("O=C(O)CCCN1C(=O)/C(=C/c2cn(-c3ccccc3)nc2-c2ccc([N+](=O)[O-])cc2)SC1=S")
"inactive"
>>> class_assignment("Nc1[nH]n2cc(-c3ccccc3)nc2c1N=Nc1ccc(S(N)(=O)=O)cc1")
"inactive"
>>> class_assignment("C1CCC([PH+](C2CCCCC2)C2CCCCC2[PH+](C2CCCCC2)C2CCCCC2)CC1.[Au].[CH-]1CCCCC1C1CCCC[N-]1 (stereo unspecified)")
"active"
>>> class_assignment("CCCOC(=O)Nc1nc2ccc(SCC(C)C)cc2s1")
"inactive"
>>> class_assignment("c1ccc([P+](c2ccccc2)(c2ccccc2)c2ccc3c4ccc([P+](c5ccccc5)(c5ccccc5)c5ccccc5)c5cccc(c6cccc2c63)c54)cc1")
"inactive"
>>> class_assignment("C=C(C)[C@@H]1CC[C@]2(C(=O)O)CC[C@]3(C)[C@H](CC[C@@H]4[C@@]5(C)CCC(NC(=O)c6cccc(OC(C)=O)c6OC(C)=O)C(C)(C)[C@@H]5CC[C@]43C)[C@@H]12 (stereo partly specified)")
"inactive"
>>> class_assignment("CCN1C(=O)N(CC)C2C1NN=c1s/c(=C\\c3ccccc3F)c(=O)n12 (stereo unspecified)")
"inactive"
>>> class_assignment("O=C1/C(=C\\c2ccc3nccnc3c2)SC(=S)N1CCc1ccc(O)cc1")
"inactive"
>>> class_assignment("COc1cc2c(c(OC)c1OC)CCC(c1cccc(NC(=O)c3ccc(Br)cc3)c1)O2 (stereo unspecified)")
"inactive"
>>> class_assignment("CC(=O)Oc1ccc(/C(=C(\\C)c2ccc(Cl)cc2)c2ccc(OCCN3CCCCC3)cc2)cc1")
"inactive"
>>> class_assignment("NS(=O)(=O)c1ccccc1NC(=O)Nc1nc2ccccc2s1")
"inactive"
>>> class_assignment("CCN(CC)CCn1c2ccc(OC)cc2c2sc3cc(OC)ccc3c(=O)c21")
"inactive"
>>> class_assignment("Clc1ccc2c(NC3CCC(N4CCOCC4)CC3)ccnc2c1 (stereo unspecified)")
"inactive"
>>> class_assignment("Nc1ncnc2c1C(c1ccc(Br)cc1)c1sc3c(F)cccc3c1O2 (stereo unspecified)")
"inactive"
>>> class_assignment("Cc1ccc(C2=Nc3c(N)ncnc3NC(c3cccc(Nc4ccnc5cc(C(F)(F)F)ccc45)c3)C2)cc1 (stereo unspecified)")
"inactive"
>>> class_assignment("Nc1cc(C(=O)NC[C@H]2CN(c3ccc(N4CCC(C(=O)O)CC4)cc3)C(=O)O2)ccc1Cl")
"inactive"
>>> class_assignment("O=C(Nc1cccc(-c2ccc(N3CCOCC3)nn2)c1)Nc1cccc(C(F)(F)F)c1")
"active"
>>> class_assignment("N=C(N)c1ccc(-c2ccc(-c3ccc(Cl)cc3Cl)s2)cc1")
"inactive"
>>> class_assignment("N=C(N)c1ccc(-c2ccc(-c3ccccc3)o2)cc1")
"active"
>>> class_assignment("COc1ccc(C(=O)Nc2cccc(-c3cc(=O)c4c(OC)c(OC)c(OC)cc4o3)c2)cc1")
"inactive"
>>> class_assignment("CC/C(=C(/c1ccc(Cl)cc1)c1ccc(OCCN(C)C)cc1)c1ccc(Cl)cc1")
"inactive"
>>> class_assignment("N#Cc1ccc(O)c(C2=NCC(c3cccc(Oc4ccccc4)c3)O2)c1 (stereo unspecified)")
"active"
>>> class_assignment("Cc1c(O)cc(-c2cnc(Nc3ccccc3)s2)c(O)c1C")
"inactive"
>>> class_assignment("COc1cc2c(cc1OCCCN1CCN(CCCOc3cc4c(cc3OC)C(=O)N3CCC[C@H]3C=N4)CC1)C=CC(C)(C)O2")
"active"
>>> class_assignment("Cc1cn(-c2cc(NC(=O)c3cccc(C#Cc4cccc5[nH]nc(N)c45)c3)cc(C(F)(F)F)c2)cn1")
"inactive"
>>> class_assignment("COc1ccc(OC)c(/C=N/Nc2ncnc3c2c(C)nn3C)c1")
"inactive"
>>> class_assignment("COc1cc(OC)c(/C=C/C(=O)c2c(OC)cccc2OC)c(OC)c1")
"inactive"
>>> class_assignment("NC(=O)c1cc(I)ccc1NC(=O)/C=C/c1ccccc1")
"inactive"
>>> class_assignment("COC1/C=C/OC2(C)Oc3c(C)c(O)c4c(O)c(c(/C=N/Nc5ccc([N+](=O)[O-])cc5[N+](=O)[O-])c(O)c4c3C2=O)NC(=O)C(C)=C/C=C/C(C)C(O)C(C)C(O)C(C)C(OC(C)=O)C1C (stereo unspecified)")
"active"
>>> class_assignment("NC(N)=NCCCCCNc1noc(Cc2c[nH]c3cc(Br)ccc23)n1")
"inactive"

Origin of measurements: PubChem BioAssay (NCI)
